- system: Solute carrier family 2, facilitated glucose transporter member 1 (Homo sapiens)
- assay protocol: ST_JUDE_LEISH: Cytotoxicity at 2uM final concentration against transgenic Leishmania Mexicana promastigotes LmGLUT1 that are glucose transport deficient and complemented with the human glucose transporter GLUT1. Activity is measured by DNA content using SYBR green in vitro
- Type: functional
inhibition values for the molecules below.
Reply with just the number (in %).

# molecule, property label, unit spec, observed
measured = [
    ("CN1CCN(c2ccc(Nc3c(C(N)=O)cnc4cc(-c5ccoc5)ccc34)cc2)CC1", "inhibition", "%", 15.1),
    ("COc1ccc(NC(=O)c2ccc(C=Cc3ccc(C(F)(F)F)cc3)cc2)cc1N1CCN(C)CC1", "inhibition", "%", 0.43),
    ("O=C(NC1CCN(Cc2ccccc2)CC1)c1ccc(-c2nc3cc(Cl)c(F)cc3[nH]2)s1", "inhibition", "%", 3.32),
    ("CC(C)Nc1nc(NCCc2c[nH]cn2)nc(Nc2ccc(Oc3ccccc3)cc2)n1", "inhibition", "%", 2.08),
    ("CCS(=O)(=O)Nc1ccc2[nH]cc(C3CCN(CCC4CCN(C(=O)/C=C/c5ccc(Cl)c(Cl)c5)CC4)CC3)c2c1", "inhibition", "%", 2.73),
    ("C=C(C)C1CC=C(CN2CCC(N3CCc4cc(NC(=O)c5cc(C)on5)ccc43)C2)CC1 (centres undefined)", "inhibition", "%", 2.54),
    ("Cn1ncc2ccc(Nc3nccc(-c4ccc5c(c4)c(N)nn5C)n3)cc21", "inhibition", "%", 93.3),
    ("Cc1c(C)n(Cc2ccccc2)c2ncnc(OC3CCN(CC(=O)NCC4CC4)CC3)c12", "inhibition", "%", 1.84),
]

Indicate the recorded inhibition value for this molecule: CCc1cc(NC2CCN(C)CC2)nc(Nc2cccc(OC)c2)n1 15

Indicate the recorded inhibition value for this molecule: NC1=NC2(CCCC2)C(c2ccc(Cl)c(Cl)c2)C(N)=N1 (centres undefined) 2.63

Indicate the recorded inhibition value for this molecule: O=C(CSc1ccccn1)Nc1c(F)cccc1F 3.81

Indicate the recorded inhibition value for this molecule: CN(CCCCN)Cc1ccc(-c2ccc(Cl)cc2)cc1 21.7

Indicate the recorded inhibition value for this molecule: CCCCCCNCCOc1ccc(-c2nc(-c3ccccc3)c(-c3ccccc3)[nH]2)cc1 4.61

Indicate the recorded inhibition value for this molecule: FC(F)(F)c1ccc2[nH]c(-c3ccc(-c4cccc(CN5CCN(c6ccncc6)CC5)c4)cc3)nc2c1 64.9

Indicate the recorded inhibition value for this molecule: O=C(CC1SC(N2N=C(c3cccs3)CC2c2ccccc2)=NC1=O)Nc1ccccc1F (centres undefined) 14.2

Indicate the recorded inhibition value for this molecule: CC(C)(C)CC(C)(C)c1ccc(O)c(C(=O)Nc2ccc([N+](=O)[O-])cc2)c1 1.13

Indicate the recorded inhibition value for this molecule: CC(CCCCC(=O)Nc1ccc(C(F)(F)F)cc1)NCC(O)c1cccc(Cl)c1 (centres undefined) 1.04

Indicate the recorded inhibition value for this molecule: Cc1ccc(NC(=O)c2cnc(N3CCN(c4ccncc4)CC3)c(Cl)c2)cc1 42.8

Indicate the recorded inhibition value for this molecule: CC(C)NC(=N)NN=Cc1ccc(Cl)c(Cl)c1 5.7

---

- system: Solute carrier family 2, facilitated glucose transporter member 1 (Homo sapiens) (UniProt P11166)
- Sequence (P11166 whole entry): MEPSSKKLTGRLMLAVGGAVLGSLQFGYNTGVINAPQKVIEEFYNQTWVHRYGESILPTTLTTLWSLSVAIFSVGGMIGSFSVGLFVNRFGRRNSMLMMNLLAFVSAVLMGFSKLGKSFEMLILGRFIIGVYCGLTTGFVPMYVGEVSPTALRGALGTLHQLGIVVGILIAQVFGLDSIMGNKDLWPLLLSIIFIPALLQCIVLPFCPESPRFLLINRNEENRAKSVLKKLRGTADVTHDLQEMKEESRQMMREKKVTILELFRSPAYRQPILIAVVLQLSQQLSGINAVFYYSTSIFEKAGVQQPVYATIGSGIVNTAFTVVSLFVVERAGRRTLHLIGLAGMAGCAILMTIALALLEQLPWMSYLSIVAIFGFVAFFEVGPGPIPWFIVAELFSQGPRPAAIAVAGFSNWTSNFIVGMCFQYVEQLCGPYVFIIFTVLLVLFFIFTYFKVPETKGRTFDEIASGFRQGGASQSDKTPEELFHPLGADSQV
- assay protocol: ST_JUDE_LEISH: Cytotoxicity at 2uM final concentration against transgenic Leishmania Mexicana promastigotes LmGLUT1 that are glucose transport deficient and complemented with the human glucose transporter GLUT1. Activity is measured by DNA content using SYBR green in vitro
- Format: functional
inhibition values for the compounds below.
Reply with just the number (in %).

The examples below pair each entry with its known result.
# compound, unit spec, inhibition
measured = [
    ("N#Cc1ccc2c(c1)CCN(CCC1CCC(NC(=O)/C=C/c3ccc4ccccc4c3)CC1)CC2 (stereo not given)", "%", -0.35),
    ("O=c1[nH]c2c(cc1CNC1CCCCC1)c(-c1cccc(F)c1)nn2-c1ccccc1", "%", 1.69),
    ("CC(C)N1CCC(N(Cc2ccc(-c3ccc(C(F)(F)F)cc3)cc2)C(=O)Cn2c(CCc3cccc(F)c3F)cc(=O)c3ccccc32)CC1", "%", 0.12),
    ("Cc1noc(-c2ccc3c(c2)CCN(CCC2CCC(NC(=O)/C=C/c4ccc(F)cc4)CC2)CC3)n1 (stereo not given)", "%", 0.93),
]

Indicate the recorded inhibition value for this compound: O=C(Nc1cc(Cl)ccc1O)c1ccc(Oc2ccc(C(=O)Nc3cc(Cl)ccc3O)cc2)cc1 -1.36

Indicate the recorded inhibition value for this compound: COc1cc(C(=O)NCCCN2CCN(c3cccc(Cl)c3)CC2)ccc1-c1cc2cc(Cl)c(Cl)cc2[nH]1 4.57
